Biological target: T1, human FcRn/b2M (human, UniProt P61769 21-119, biotinylated)
T1 construct: bought recombinant biotinylated protein (ACRO FCM-H82W4 or Immunitrack ITF01); also called hFcRn; hFcRn/hb2M
T1 sequence (chain, as listed by the source limits assumed, chain 1 of 2): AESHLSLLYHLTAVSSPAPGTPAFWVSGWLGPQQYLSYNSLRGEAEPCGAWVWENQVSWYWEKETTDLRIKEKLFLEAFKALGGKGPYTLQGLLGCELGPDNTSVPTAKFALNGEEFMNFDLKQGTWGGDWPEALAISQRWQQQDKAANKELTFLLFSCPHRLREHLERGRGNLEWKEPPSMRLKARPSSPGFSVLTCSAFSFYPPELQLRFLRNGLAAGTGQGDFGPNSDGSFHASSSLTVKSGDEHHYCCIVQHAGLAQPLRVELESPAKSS
T1 sequence (P61769 21-119 limits assumed, chain 2 of 2): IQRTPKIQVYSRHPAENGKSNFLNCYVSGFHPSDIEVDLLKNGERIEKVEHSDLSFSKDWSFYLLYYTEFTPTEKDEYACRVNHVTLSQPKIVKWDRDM
Assay: SPR pH 7.4;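 note: surface plasmon resonance kinetics, periplasmic extracts diluted 1:10 flowed over immobilized target at 25 °C, 120 s association then 600–3600 s dissociation, buffer with 150 mM NaCl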
PROPERTY: koff

So for T0263018B11 S100Q (VHH, name in Kabat numbering, FLAG3-His6 tagged) VHH: EVQLVESGGGVVQPGGSLRLSCAASGFTFSSYAMYWVRQAPGKGLEWVSAISSGGGSTDYADSVKGRFTISRDNSKNTLYLQMNSLRPEDTALYYCAADTLYTQLTWYSYWGQGTLVTVSS , the logged koff turned out to be 0.13 s⁻¹

So for T0263018B11 G54P (VHH, name in Kabat numbering, FLAG3-His6 tagged) VHH: EVQLVESGGGVVQPGGSLRLSCAASGFTFSSYAMYWVRQAPGKGLEWVSAISSGPGSTDYADSVKGRFTISRDNSKNTLYLQMNSLRPEDTALYYCAADTLYTSLTWYSYWGQGTLVTVSS , the logged koff turned out to be 0.033 s⁻¹

So for T0263018B11 W100cA (VHH, name in Kabat numbering, FLAG3-His6 tagged) VHH: EVQLVESGGGVVQPGGSLRLSCAASGFTFSSYAMYWVRQAPGKGLEWVSAISSGGGSTDYADSVKGRFTISRDNSKNTLYLQMNSLRPEDTALYYCAADTLYTSLTAYSYWGQGTLVTVSS , the logged koff turned out to be 0.5 s⁻¹

So for T0263018B11 Y98F (VHH, name in Kabat numbering, FLAG3-His6 tagged) VHH: EVQLVESGGGVVQPGGSLRLSCAASGFTFSSYAMYWVRQAPGKGLEWVSAISSGGGSTDYADSVKGRFTISRDNSKNTLYLQMNSLRPEDTALYYCAADTLFTSLTWYSYWGQGTLVTVSS , the logged koff turned out to be 0.04 s⁻¹

So for T0263018B11 T57Y (VHH, name in Kabat numbering, FLAG3-His6 tagged) VHH: EVQLVESGGGVVQPGGSLRLSCAASGFTFSSYAMYWVRQAPGKGLEWVSAISSGGGSYDYADSVKGRFTISRDNSKNTLYLQMNSLRPEDTALYYCAADTLYTSLTWYSYWGQGTLVTVSS , the logged koff turned out to be 0.033 s⁻¹

So for T0263018B11 F29D (VHH, name in Kabat numbering, FLAG3-His6 tagged) VHH: EVQLVESGGGVVQPGGSLRLSCAASGFTDSSYAMYWVRQAPGKGLEWVSAISSGGGSTDYADSVKGRFTISRDNSKNTLYLQMNSLRPEDTALYYCAADTLYTSLTWYSYWGQGTLVTVSS , the logged koff turned out to be 0.14 s⁻¹

So for T0263018B11 S30T (VHH, name in Kabat numbering, FLAG3-His6 tagged) VHH: EVQLVESGGGVVQPGGSLRLSCAASGFTFTSYAMYWVRQAPGKGLEWVSAISSGGGSTDYADSVKGRFTISRDNSKNTLYLQMNSLRPEDTALYYCAADTLYTSLTWYSYWGQGTLVTVSS , the logged koff turned out to be 0.059 s⁻¹
